Target: T1, human CD70 (cellularly expressed hCD70) (human, UniProt P32970 1-193)
T1 construct: whole, on cells; also called CHO-K1.hCD70; CHO-K1.CD70
T1 sequence (looked up): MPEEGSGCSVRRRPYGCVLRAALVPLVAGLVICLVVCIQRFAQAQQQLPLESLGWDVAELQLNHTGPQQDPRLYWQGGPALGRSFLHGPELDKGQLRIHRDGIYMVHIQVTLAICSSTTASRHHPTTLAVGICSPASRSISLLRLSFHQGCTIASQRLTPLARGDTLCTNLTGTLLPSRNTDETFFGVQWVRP
Assay: cell ELISA on CHO-K1.hCD70 cells, goat anti-mouse IgG-HRP
parameter: pEC50
Please note pEC50 is a logarithmic value: minus log10 of concentration in mol/L. Answer with that number alone.

Exercise: Item under review: hCD70.21 (antibody, IgG1, V domains shown, Mouse monoclonal purified from hybridoma supernatant) VH: QVQLQQPGAELVKPGTSVKLSCKASGYNFTSYWINWVKLRPGQGLEWIGDIYPGSGSTNYNEKFKSKATLTVDTSSSTAYMQLSSLASEDSALYYCARGHYGSSYGFDYWGQGTTLTVSS VL: DIVLTQSPASLAVSLGQRATISCRASKSVSTSGYSYMHWYQQKPGQPPKLLIYLASNLESGVPARFSGSGSGTDFTLNIHPVEEEDAATYYCQHSRELPLTFGAGTKLELK . Reported pEC50?
Key: 9.59

Exercise: Give its pEC50 value. Item: hCD70.34 (antibody, IgG1, V domains shown, Mouse monoclonal purified from hybridoma supernatant) VH: QVQLKESGPGLVAPSQSLSITCTVSGFSLTSYGVSWVRQPPGKGLEWLGVIWGDGTTNYHSALISRLSISKDNSKSQVFLKLNSLQIDDTATYYCAKPGDYYGSSYWYFDVWGAGTTVTVSS VL: DVVLTQTPLSLPVNIGDQASISCKSTKSLLNSDGFTYLDWYLQKPGQSPQLLIYFVSNRFSGVPDRFSGSGSGTDFTLKISRVEADDLGVYYCFQSNYLPYTFGGGTKLEIK
Key: 9.68

Exercise: GET /values?readout=pEC50&item= hCD70.36 (antibody, IgG1, V domains shown, Mouse monoclonal purified from hybridoma supernatant) VH: EVQLQQSGPELVKTGASVKISCKASGYSFTGYYMHWVKQSHGKSLEWIGYISCYNGATSYNQKFKGKATFTVDTSSSTAYMQFNSLTSEDSAVYYCARGGNWDVEYAMDYWGQGTSVTVSS VL: DIVLTQSPASLAVSLGQRATISCRASKSVSTSGYSYMHWYQQKPGQPPKLLIYLASNLESGVPARFSGSGSGTDFTLNIHPVEEEDAATYYCQHSRELPFTFGSGTKLEIK
Key: 9.52

Exercise: Consider the binder shown here: hCD70.23 (antibody, IgG1, V domains shown, Mouse monoclonal purified from hybridoma supernatant) VH: QVQLQQSGPEVVRPGVSVKISCKGSGYTFTDYAMHWVKQSHAKSLEWIGVISTYNGNTNYNQKFKGKATMTVDKSSSTAYMELARLTSEDSAIYYCARDYLDYWGQGTTLTVSS VL: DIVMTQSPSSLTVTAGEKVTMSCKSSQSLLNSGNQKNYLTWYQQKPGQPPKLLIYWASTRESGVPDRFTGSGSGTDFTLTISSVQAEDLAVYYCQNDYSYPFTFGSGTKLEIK What is its recorded pEC50?
Key: 9.77

Exercise: # query: pEC50 of entry hCD70.39 (antibody, part only; not given: light chain, IgG1, V domains shown, part only) VH: QGQMQQSGAELVKPGASVKLSCKTSGFTFSSNYISWLKQKPGQSLEWIAWIYAGTGGTNYNQKFTGKAQLTVDTSSSTAYIQFSSLTTEDSAIYYCARLYGYYFDYWGQGTTLTVSS
Key: 9.47

Exercise: Which pEC50 value is on record for hCD70.32 (antibody, IgG1, V domains shown, Mouse monoclonal purified from hybridoma supernatant) VH: QVQLQQSGDDLVKPGASVKLSCKASGYTFTSYWINWIKQRPGQGLEWIGRIAPGSGSTYYSKIFKGKATLTVDTSSSTAYIQLSSLSSEDSAVYFCSRGDYGDYWGQGTTLTVSS VL: DIVMTQSHKFMSTSVGDRVSITCKASQDVGTAVAWYQQKPGESPKLLIYWASTRHTGVPDRLTGSGSGTDFTLTISNVHSEDLADYFCQQYSGYPLTFGDGTKLEL ?
Key: 9.82
